Biological target: GST-Dm-Relish (Drosophila melanogaster, UniProt Q94527 99-473)
Sequence: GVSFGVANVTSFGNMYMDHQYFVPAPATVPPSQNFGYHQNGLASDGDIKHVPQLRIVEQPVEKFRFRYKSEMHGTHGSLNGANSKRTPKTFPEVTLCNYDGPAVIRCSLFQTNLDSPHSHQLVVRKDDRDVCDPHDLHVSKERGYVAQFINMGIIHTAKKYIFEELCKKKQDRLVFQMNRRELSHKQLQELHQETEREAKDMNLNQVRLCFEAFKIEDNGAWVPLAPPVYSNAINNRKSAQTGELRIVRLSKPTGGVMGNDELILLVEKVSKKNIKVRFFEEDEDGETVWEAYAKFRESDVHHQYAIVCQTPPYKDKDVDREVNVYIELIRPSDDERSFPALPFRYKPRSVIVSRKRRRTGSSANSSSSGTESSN
Assay: protein-binding microarray (PBM); PBM: ~300 nM protein, 6 mM HEPES pH 7.8, 80 mM KCl, 0.5 mM EDTA, 0.5 mM EGTA, 6% glycerol, 35 ng/ul poly-dIdC, 1% milk, 1 h, room temperature; high values mean tight binding
Details: dsDNA, one strand shown
Readout label: binding signal (z-score)
One number for each entry, in z-score.

Look over these answered cases.
CCGATTAACATCAGCTAATTCCCTGATGTTAATCGGGTCTTGATTCGCTTGACGCTGCTG	1.18
CCGATTAACATCAGGGGAATTTATGATGTTAATCGGGTCTTGATTCGCTTGACGCTGCTG	9.13
CCGATTAACATCAAAAAGTCCCCTGATGTTAATCGGGTCTTGATTCGCTTGACGCTGCTG	10
CCGATTAACATCAACGGAATTCCTGATGTTAATCGGGTCTTGATTCGCTTGACGCTGCTG	2.11
CCGATTAACATCAATGCCCCCCCTGATGTTAATCGGGTCTTGATTCGCTTGACGCTGCTG	4.02
CCGATTAACATCAGGGGGGATAATGATGTTAATCGGGTCTTGATTCGCTTGACGCTGCTG	4.67
CCGATTAACATCAGGGGGGAAGATGATGTTAATCGGGTCTTGATTCGCTTGACGCTGCTG	3.64
CCGATTAACATCAGGATGTCCCCTGATGTTAATCGGGTCTTGATTCGCTTGACGCTGCTG	5.89
CCGATTAACATCAGGGGGTTGGATGATGTTAATCGGGTCTTGATTCGCTTGACGCTGCTG	4.45

Could you now consider this next sequence?
So what's the measured binding signal for this one? CCGATTAACATCAGACAATCCCCTGATGTTAATCGGGTCTTGATTCGCTTGACGCTGCTG
4.95

====

Record form. Attribute: binding signal. Fill in for each entry.
Molecular target: GST-Co-NF-kB (Capsaspora owczarzaki, UniProt F1ARL5 200-546)
Sequence: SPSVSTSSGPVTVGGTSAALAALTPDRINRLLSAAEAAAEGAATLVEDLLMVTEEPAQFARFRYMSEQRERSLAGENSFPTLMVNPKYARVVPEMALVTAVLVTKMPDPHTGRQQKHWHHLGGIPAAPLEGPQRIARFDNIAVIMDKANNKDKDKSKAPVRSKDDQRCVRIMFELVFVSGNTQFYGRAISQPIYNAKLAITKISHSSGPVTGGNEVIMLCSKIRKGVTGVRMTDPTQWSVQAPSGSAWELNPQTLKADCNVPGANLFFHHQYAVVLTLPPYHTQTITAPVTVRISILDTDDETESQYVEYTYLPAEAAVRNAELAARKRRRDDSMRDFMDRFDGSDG
Experiment: protein-binding microarray (PBM); PBM: ~300 nM protein, 6 mM HEPES pH 7.8, 80 mM KCl, 0.5 mM EDTA, 0.5 mM EGTA, 6% glycerol, 35 ng/ul poly-dIdC, 1% milk, 1 h, room temperature; high values mean tight binding
Conditions: dsDNA, one strand shown
Give bare numbers, in z-score.

Example entries begin here.
CCGATTAACATCAATTACCCCCCTGATGTTAATCGGGTCTTGATTCGCTTGACGCTGCTG	6.96
CCGATTAACATCAAATTTCCCAATGATGTTAATCGGGTCTTGATTCGCTTGACGCTGCTG	3.94
CCGATTAACATCAAGCCCCCCCTTGATGTTAATCGGGTCTTGATTCGCTTGACGCTGCTG	3.04

Please find the next sequence below.
So what does the record say about binding signal for CCGATTAACATCAGACAACCCCCTGATGTTAATCGGGTCTTGATTCGCTTGACGCTGCTG ?
1.95

====

Target: GST-Nv-NF-kB (Ser allele) (Nematostella vectensis, UniProt A7UNT2 2-411)
Sequence: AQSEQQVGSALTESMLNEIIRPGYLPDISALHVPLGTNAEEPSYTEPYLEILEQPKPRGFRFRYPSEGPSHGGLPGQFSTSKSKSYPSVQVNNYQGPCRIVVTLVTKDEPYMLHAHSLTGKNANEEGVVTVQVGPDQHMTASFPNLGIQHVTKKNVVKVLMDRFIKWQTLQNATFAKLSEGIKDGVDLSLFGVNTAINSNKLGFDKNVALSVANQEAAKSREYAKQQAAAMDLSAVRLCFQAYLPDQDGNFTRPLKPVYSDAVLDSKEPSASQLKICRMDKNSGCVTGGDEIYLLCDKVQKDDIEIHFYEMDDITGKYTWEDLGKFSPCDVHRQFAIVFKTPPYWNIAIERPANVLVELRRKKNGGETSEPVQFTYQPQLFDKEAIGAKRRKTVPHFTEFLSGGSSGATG
Experiment: protein-binding microarray (PBM); PBM: ~300 nM protein, 6 mM HEPES pH 7.8, 80 mM KCl, 0.5 mM EDTA, 0.5 mM EGTA, 6% glycerol, 35 ng/ul poly-dIdC, 1% milk, 1 h, room temperature; high values mean tight binding
Details: dsDNA, one strand shown
Readout label: binding signal (z-score)
Answers are plain numbers, in z-score.

CCGATTAACATCAGGGGGGACTATGATGTTAATCGGGTCTTGATTCGCTTGACGCTGCTG	4.88
CCGATTAACATCAAAGAAACCCCTGATGTTAATCGGGTCTTGATTCGCTTGACGCTGCTG	5.11

// next entry
Endpoint output: binding signal of CCGATTAACATCAGGCGATCCCCTGATGTTAATCGGGTCTTGATTCGCTTGACGCTGCTG . Value?
5.07

====

biological target: GST-Hu-p50 (Homo sapiens, UniProt P19838 7-356); assay: protein-binding microarray (PBM); PBM: ~300 nM protein, 6 mM HEPES pH 7.8, 80 mM KCl, 0.5 mM EDTA, 0.5 mM EGTA, 6% glycerol, 35 ng/ul poly-dIdC, 1% milk, 1 h, room temperature; high values mean tight binding; conditions: dsDNA, one strand shown
Sequence (P19838 7-356): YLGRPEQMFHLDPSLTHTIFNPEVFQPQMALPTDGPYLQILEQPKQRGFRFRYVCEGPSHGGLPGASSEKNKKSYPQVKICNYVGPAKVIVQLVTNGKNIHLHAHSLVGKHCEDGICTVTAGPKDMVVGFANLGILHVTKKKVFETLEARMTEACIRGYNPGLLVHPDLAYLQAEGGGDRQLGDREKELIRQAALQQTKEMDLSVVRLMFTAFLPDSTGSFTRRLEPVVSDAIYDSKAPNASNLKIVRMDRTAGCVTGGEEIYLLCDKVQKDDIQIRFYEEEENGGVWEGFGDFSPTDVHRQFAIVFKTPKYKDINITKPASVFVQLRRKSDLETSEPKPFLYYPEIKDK
For each record, write down the corresponding binding signal.
# include the unit after the value

Examples from the recorded data:
CCGATTAACATCACGAAATCCCCTGATGTTAATCGGGTCTTGATTCGCTTGACGCTGCTG	7.74 z-score
CCGATTAACATCAGGAGTCCCCCTGATGTTAATCGGGTCTTGATTCGCTTGACGCTGCTG	5.55 z-score
CCGATTAACATCAGGACAGCCCCTGATGTTAATCGGGTCTTGATTCGCTTGACGCTGCTG	4.14 z-score
CCGATTAACATCAAGACTCCCCCTGATGTTAATCGGGTCTTGATTCGCTTGACGCTGCTG	5.69 z-score

Now for a further sequence.
Recall the recorded binding signal for CCGATTAACATCAAATTTCCCGGTGATGTTAATCGGGTCTTGATTCGCTTGACGCTGCTG with GST-Hu-p50 (Homo sapiens, UniProt P19838 7-356) and state it.
4.39 z-score

====

Can you tell me binding signal for the items I'm about to list?
target: GST-Hu-p50 (Homo sapiens, UniProt P19838 7-356); assay: protein-binding microarray (PBM); PBM: ~300 nM protein, 6 mM HEPES pH 7.8, 80 mM KCl, 0.5 mM EDTA, 0.5 mM EGTA, 6% glycerol, 35 ng/ul poly-dIdC, 1% milk, 1 h, room temperature; Ap Aiptasia and Nv Nematostella (sea anemones) / Co Capsaspora / Aq Amphimedon (sponge) / Dm Drosophila / Hu human; RHD is the Rel homology domain; high values mean tight binding; conditions: dsDNA, one strand shown
Numbers only, in z-score.

Please review the entries below; each comes with its answer.
CCGATTAACATCACATTCCCCCCTGATGTTAATCGGGTCTTGATTCGCTTGACGCTGCTG	5.73
CCGATTAACATCACGGGGATTCCTGATGTTAATCGGGTCTTGATTCGCTTGACGCTGCTG	6.46

Lab note: each sequence below needs its binding signal filled in.
1. CCGATTAACATCAAGAAAGTCCCTGATGTTAATCGGGTCTTGATTCGCTTGACGCTGCTG
2. CCGATTAACATCAAAAATTTCCCTGATGTTAATCGGGTCTTGATTCGCTTGACGCTGCTG
3. CCGATTAACATCAGGCAACTCCCTGATGTTAATCGGGTCTTGATTCGCTTGACGCTGCTG
4. CCGATTAACATCAGGGTATTTAATGATGTTAATCGGGTCTTGATTCGCTTGACGCTGCTG
5. CCGATTAACATCAGATAATTCCCTGATGTTAATCGGGTCTTGATTCGCTTGACGCTGCTG
6. CCGATTAACATCACAAGTTTCCCTGATGTTAATCGGGTCTTGATTCGCTTGACGCTGCTG

6.05
5.67
2.67
4.41
4.73
4.17
